- Assay Method Text: AUC in Sprague-Dawley rat at 15 mg/kg, po administered via gavage by LC/MS/MS analysis
- Format: ADME, organism-based
- Set-up: dose 15 mg/kg, route oral
- Particulars: plasma
Consider the following compounds and their measured AUC readings.

{"Compound String": "C=C[C@@H]1C[C@]1(NC(=O)[C@@H]1C[C@@H](Oc2ncc(OC)c3ccccc23)CN1C(=O)[C@@H](NC(=O)OC(C)(C)C)C(C)(C)C)C(=O)NS(=O)(=O)C1CC1", "AUC": "0.37 µM·h"}
{"Compound String": "C=C[C@@H]1C[C@]1(NC(=O)[C@@H]1C[C@@H](Oc2cc(-c3ccccc3)nc3cc(OC)ccc23)CN1C(=O)[C@@H](NC(=O)OC(C)(C)C)C(C)(C)C)C(=O)NS(=O)(=O)C1CC1", "AUC": "0.577 µM·h"}
{"Compound String": "C=C[C@@H]1C[C@]1(NC(=O)[C@@H]1C[C@@H](Oc2nccc3cc(OC)ccc23)CN1C(=O)[C@@H](NC(=O)OC(C)(C)C)C(C)C)C(=O)NS(=O)(=O)C1CC1", "AUC": "10.5 µM·h"}
{"Compound String": "C=C[C@@H]1C[C@]1(NC(=O)[C@@H]1C[C@@H](Oc2nccc3cc(OC)ccc23)CN1C(=O)[C@@H](NC(=O)O[C@H]1CCOC1)C(C)(C)C)C(=O)NS(=O)(=O)C1CC1", "AUC": "0.13 µM·h"}
{"Compound String": "C=C[C@@H]1C[C@]1(NC(=O)[C@@H]1C[C@@H](Oc2nccc3cc(OC)ccc23)CN1C(=O)[C@@H](NC(=O)OC(C)(C)C)C(C)(C)C)C(=O)NS(=O)(=O)C1CC1", "AUC": "14.1 µM·h"}
{"Compound String": "C=C[C@@H]1C[C@]1(NC(=O)[C@@H]1C[C@@H](Oc2nccc3ccccc23)CN1C(=O)[C@@H](NC(=O)OC(C)(C)C)C(C)(C)C)C(=O)NS(=O)(=O)C1CC1", "AUC": "2.67 µM·h"}
{"Compound String": "CC[C@@H]1C[C@]1(NC(=O)[C@@H]1C[C@@H](Oc2nccc3cc(OC)ccc23)CN1C(=O)[C@@H](NC(=O)OC(C)(C)C)C(C)(C)C)C(=O)NS(=O)(=O)C1CC1", "AUC": "0.58 µM·h"}
{"Compound String": "C=C[C@@H]1C[C@]1(NC(=O)[C@@H]1C[C@@H](Oc2nccc3c(OC)cccc23)CN1C(=O)[C@@H](NC(=O)OC(C)(C)C)C(C)(C)C)C(=O)NS(=O)(=O)C1CC1", "AUC": "3.74 µM·h"}
{"Compound String": "C=C[C@@H]1C[C@]1(NC(=O)[C@@H]1C[C@@H](Oc2ncc(OC)c3cc(OC)ccc23)CN1C(=O)[C@@H](NC(=O)OC(C)(C)C)C(C)(C)C)C(=O)NS(=O)(=O)C1CC1", "AUC": "0.194 µM·h"}
{"Compound String": "C=C[C@@H]1C[C@]1(NC(=O)[C@@H]1C[C@@H](Oc2nccc3c(Cl)cccc23)CN1C(=O)[C@@H](NC(=O)OC(C)(C)C)C(C)(C)C)C(=O)NS(=O)(=O)C1CC1", "AUC": "2.08 µM·h"}

====

- Assay Method Text: Drug uptake in Sprague-Dawley rat liver at 20 mg/kg, po administered via gavage measured after 4 hrs by LC/MS/MS analysis
- Format: ADME, organism-based
- Parameters: dose 20 mg/kg, route oral
- Particulars: read-out: Drug uptake
Readout Kind: concentration at 4 h (µM)

{"Compound String": "C=C[C@@H]1C[C@]1(NC(=O)[C@@H]1C[C@@H](Oc2cc(-c3ccccc3)nc3cc(OC)ccc23)CN1C(=O)[C@@H](NC(=O)OC(C)(C)C)C(C)(C)C)C(=O)NS(=O)(=O)C1CC1", "Measured Result": 5.8}
